- tested target: GST-tagged K-Ras G12V protein (Example 4)
- method notes: FA, binding in solution
measured metric: Kd (µM)
Report the value in µM with no unit label.

## Task Give Kd for the following substance: peptide 13, bicyclo(Ala-Orn-Phg-Arg-d-Asn-Pra-Ile-d-Phe-K-FNalR4-Dap)-K
## Result 6
